Reference source: patent US20120094909A1

Target: T1, human PCSK9 (proprotein convertase subtilisin kexin type 9) (human, UniProt Q8NBP7 31-692)
T1 construct: immobilized directly (ProteOn), biotinylated (Octet) or in solution, according to the assay; also called hPCSK9; PCSK9-AF647 (labelled form)
Assay: PCSK9:EGFA FRET, competitor EGFA peptide
READOUT: pEC50
By convention, pEC50 is the negative base-10 log of a molar concentration.

Record 2451A02 (designed binder) MGVSDVPRDLEVVAATPTSLLISWDAPAAGYGYYRITYGETGGNSPVQEFTVPVSKGTATISGLKPGVDYTITVYAVEFPFPGSGYYHRPISINYRTEIDKPSQHHHHHH , field pEC50: 8.49

The value of pEC50 measured for the binder 2381G06 (designed binder) MGVSDVPRDLEVVAATPTSLLISWSEKLDGKARRGYYRITYGETGGNSPVQQFTVPGSKGTATISGLKPGVDYTITVYAVEFPYDHSGYYHRPISINYRTEIDKPSQHHHHHH turned out to be 8.05

For this binder ( 1459D05 (designed binder, also called ATI000891; ATI-891) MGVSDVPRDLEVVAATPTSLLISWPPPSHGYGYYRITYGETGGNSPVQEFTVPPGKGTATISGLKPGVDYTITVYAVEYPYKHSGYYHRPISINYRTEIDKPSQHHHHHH ), measured pEC50 is 8.40

Please fill in: pEC50 reported for 2382C09 (designed binder) MGVSDVPRDLEVVAATPTSLLISWDAPAEGYGYYRITYGETGGNSPVQEFTVPVSKGTATISGLKPGVDYTITVYAVEFDFPGSGYYHRPISINYRTEIDKPSQHHHHHH = 8.46

get_value(item= 2382H09 (designed binder) MGVSDVPRDLEVVAATPTSLLISWDAPAAAYGYYRITYGETGGNSPVQEFTVPSSKGTATISGLKPGVDYTITVYAVEFDFPGSGYYHRPISINYRTEIDKPSQHHHHHH , readout=pEC50) returns 9.05

Data point: 2382E03 (designed binder) MGVSDVPRDLEVVAATPTSLLISWDAPAGDGYGYYRITYGETGGNSPVQEFTVPVSKGTATISGLKPGVDYTITVYAVEFDFPGAGYYHRPISINYRTEIDKPSQHHHHHH ; pEC50 = 8.62

Record 2011H05 (designed binder, also called ATI001091) MGVSDVPRDLEVVAATPTSLLISWVPSSHAYGYYRITYGETGGNSPVQEFTVPVGVGTATISGLKPGVDYTITVYAVEYAFEGAGYYHRPISINYRTEIDKPSQHHHHHH , field pEC50: 8.57

2381A08 (designed binder) MGVSDVPRDLEVVAATPTSLLISWDAPADGGYGYYRITYGETGGNSPVQEFTVPGSKGTATISGLKPGVDYTITVYAVEYDFPGAGYYHRPISINYRTEIDKPSQHHHHHH yielded pEC50 of 8.44
